Assay Comment: Brain and plasma drug levels after single oral dose in CD-1 mice
Type: in vivo, mouse
Experimental Parameters: female, mouse, brain/plasma, 20 mg/kg; single oral dose, CD-1 mice, at one hour; read-out: brain/plasma ratio

{"Compound": "O=C(CC1Cc2ccccc2C1)N[C@H](CN1CCCC1)[C@H](O)c1ccc2c(c1)OCCO2 [control]", "Kp at 1 h": 0.25}

The measured values listed here are drawn from patent US10202340B2.
